# tested target: T1, HsmtSSBΔN (Homo sapiens, UniProt Q04837 =M+26-148, internal_change)
# T1 sequence: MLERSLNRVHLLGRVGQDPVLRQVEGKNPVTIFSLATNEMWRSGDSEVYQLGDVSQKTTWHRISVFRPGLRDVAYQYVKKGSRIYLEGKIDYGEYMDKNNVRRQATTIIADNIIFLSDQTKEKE
# assay name: EMSA; 50 mM NaCl, 4 mM Mg2+; apparent Kd, protein as tetramer; 20 mM Tris-HCl pH 7.5, 1 mM DTT, 4 mM MgCl2, 50 mM NaCl, 36 fmol 48-mer in 20 µL, 20°C 10 min; 6% native PAGE
# reported conditions: protein: recombinant; tags: none (untagged); chain copies: 4; label: 5'-32P; single strand
pKd: −log10 of the molar value.
endpoint name: pKd

Prompt: Please supply the value of reported pKd for the item GGACTATTTATTAAATATATTTAAGAACTAATTCCAGCTGAGCGCCGG (ssDNA) [48-mer ssDNA oligonucleotide]
Response: ~8.30
